- Tested on: SW-620 colon
- TEST METHOD NOTES: NCI tumour cell line growth inhibition, 48 h
Exercise: for every item that follows, state its recorded TGI.

Would you please look over these solved cases?
{"columns": ["COMPOUND", "TGI"],
 "data": [
  ["COP(=O)(OC)/C(=C\\C1=CN(C(c2ccccc2)(c2ccccc2)c2ccccc2)CN1)NC=O", "42.4 µM"],
  ["COc1ccc(N2C(=O)C3c4[nH]c5cccc(Cl)c5c4C4CCC(C(C)(C)C)CC4C3C2=O)cc1 (stereo unspecified)", "> 100 µM"],
  ["COc1cc(Cl)cc(-c2nn(-c3cccc(NC(=O)c4cccc(C(F)(F)F)c4)c3)cc2-c2ccncc2)c1", "> 100 µM"]
]}

// each compound listed below needs its TGI
1. NC(N)=N/N=C(/CCN1CCCC1)CC(c1ccccc1)c1c(O)c2ccccc2oc1=O (stereo unspecified)
2. COCC1OC(OC2OCC3OC4(OCC(O)(C(C)OC)C5OCOC54)OC3C2OC)C(OC)C(O)C1OC1OC(C)C(OC)C(OC2OC(C)C3OC4(CC(O)C(OC5CC(OC6CC(C)([N+](=O)[O-])C(OC)C(C)O6)C(OC(=O)c6c(C)c(Cl)c(O)c(Cl)c6OC)C(C)O5)C(C)O4)OC3(C)C2O)C1O (stereo unspecified)
3. COc1ccc2c(c1)C(=Nc1ccc(F)c(F)c1F)c1c-2c(Nc2ccc(F)c(F)c2F)nc2ccccc12
4. c1ccc(-c2n(Cc3ccc4ccccc4n3)cc[n+]2Cc2ccc3ccccc3n2)cc1
5. Clc1ccc(OCc2nnc3n2N=C(c2ccccc2)CS3)cc1
6. CC(C)Cn1cnc2c(Sc3c([N+](=O)[O-])ncn3C)nc(N)nc21
7. COc1ccccc1C=NC12CC3CC(CC(C3)C1)C2

Output:
["> 100 µM", "> 100 µM", "> 100 µM", "14.5 µM", "32.9 µM", "> 100 µM", "> 100 µM"]

Task: // fetch SW-620 colon TGI for Nc1ncnc2c1ncn2C1OC(CSC(F)F)C(O)C1O (stereo unspecified)
Output: > 100 µM
